Tested on: SF-539 CNS
Experiment: NCI-60 one-dose screen, 48 h
Details: 10 µM unless noted
Procedure: Cells are grown in 96 well plates and exposed to the test compound for 48 hours. Compounds are tested at a single concentration, which is 10^-5 M for most compounds. The reported endpoint is percent growth (GI% or GIPRCNT), where numbers from 0 - 100% represent growth inhibition, and numbers from -100% - 0 represent cell death. For example, a value of 40 represents 60% growth inhibition. A value of 0 means no net growth occurred over the course of the experiment. […]
The panel holds about 83,000 compounds, 20% with a hit somewhere; the sample as a whole holds those more often. Calls of active or inactive are those of the source. The calls were made as follows: active = growth percent below 10; inactive = the rest.
Possible outcomes: 1 (yes) = active, 0 (no) = inactive

molecule	cat
CN(C)c1ccc(-c2cc(-c3ccc(Nc4nc(Nc5ccccc5)nc(Nc5ccc(Cl)cc5)n4)cc3)nc(N)n2)cc1	0 (no)
COc1ccc(-c2nnc(-c3ccc4c(c3)nc(-c3ccccc3)n4C3CCCCC3)o2)cc1	0 (no)
Clc1ccc2c(NCCCN3CCN(c4nc(-n5ccnc5)nc5ccccc45)CC3)ccnc2c1	1 (yes)
N#C/C=C(\c1ccc([N+](=O)[O-])cc1)n1nnc2cc(Cl)c(Cl)cc21	1 (yes)
Cc1ccc(/C=C(\C#N)n2nnc3cc(Cl)c(Cl)cc32)cc1	1 (yes)
CC(C)(C)Nc1c(-c2c3ccccc3cc3ccccc23)nc2ccccn12	0 (no)
C[N+](C)(C)CCOC(OCC[N+](C)(C)C)(c1ccccc1)c1ccccc1	0 (no)
CCC(O)(C(c1ccccc1)c1ccccn1)C(c1ccccc1)c1ccccn1 (stereo not drawn)	0 (no)
COc1ccc(Cn2cnc3cc(C(=O)Nc4cccc5ccccc45)ccc32)c(OC)c1	1 (yes)
C=C1C(=O)O[C@H]2[C@H]1CC/C(COC(=O)/C=C\C(=O)NCc1ccc(Cn3c(=O)sn(-c4ccc(OC)cc4)c3=O)cc1)=C\CC[C@@]1(C)O[C@@H]21	1 (yes)
Cc1nc(Nc2ccc(NC(=S)Nc3ccccc3)cc2)nc2nc(Nc3ccc(S(=O)(=O)O)cc3)[nH]c(=O)c12	0 (no)
O=C(c1ccccc1)c1ccc(N2C(=O)C3C4c5ccccc5C(/C=C/C(=O)c5ccccn5)(c5ccccc54)C3C2=O)cc1 (stereo not drawn)	1 (yes)
O=C(CC12CC3CC(CC(C3)C1)C2)NCCOCCOCCNC(=O)c1cc2c(o1)C(=O)c1ccccc1C2=O	1 (yes)
CNC(=O)NCC1OC(n2cnc3c(NC(=O)Nc4ccccc4)ncnc32)C2OC(C)(C)OC12 (stereo not drawn)	0 (no)
COc1ccc(/C=N/NC(=O)Cn2c(-c3ccc(S(C)(=O)=O)cc3)nc3cc(Cl)ccc32)cc1	1 (yes)
O=c1ccn(C2OC(F)(CO)C(O)C2F)c(=O)[nH]1 (stereo not drawn)	0 (no)
CC(C)(C)CC(C)(C)Nc1c(-c2ccc(-c3ccccc3)cc2)nc2cnccn12	0 (no)
COc1cc(-c2ccc(N=Nc3c(O)c(C(=O)Nc4ccccc4OC)cc4ccccc34)c(OC)c2)ccc1N=Nc1c(O)c(C(=O)Nc2ccccc2OC)cc2ccccc12	0 (no)

====

Listed here: items and their measured growth.
tested on: TK-10 renal; assay: NCI-60 one-dose screen, 48 h (100 = growth as untreated, 0 = no growth, -100 = all killed); settings: 10 µM unless noted
About 83,000 compounds went through this panel and 20% of them were active in at least one assay; those are over-represented in the sample as a whole.
measured-attribute: growth (%)

chemical-string	measured-attribute	reported
O=C1Nc2ccccc2/C1=N/N=C/c1ccsc1	growth	137
O=C(NCCOCCOCCOCCNC(=O)c1cc2c(o1)C(=O)c1ccccc1C2=O)NC12CC3CC(CC(C3)C1)C2	growth	-3.88
Cc1cnc(Nc2ccc(N3CCN(C)CC3)cc2)nc1Nc1ccc(Cl)c(NS(=O)(=O)C(C)(C)C)c1	growth	0.435
CC(=O)c1sc(-c2ccccc2)cc1N	growth	101
Cc1cc(-c2noc(C(F)(F)F)n2)ccc1N1CCN(c2cc(C(=O)N(C)C)no2)CC1	growth	81.2
